Consider the following compounds; for each one, report its composite z-score.
# Tested on: Fibrinogen (Alexa647-labelled)
# protocol.text: fibrinogen binders on compound microarrays, profiling panel, artefact control for SMM control-protein annotation, biochemical, small-molecule microarray, 635/667 nm fluorescence (AID 1131);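 note: z-score merges 667 nm fluorescence with per-spot signal-to-noise over triplicate slides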
# measurement.conditions: fibrinogen-A647 binding fluorescence, higher = more signal
One number for each entry.

| compound | composite z-score |
| --- | --- |
| C#CCN(C(/C=C/c1ccccc1)CO)C(C(=O)O)c1ccccc1 (stereo not drawn) | 0.116 |
| COC(=O)C1=CC(CCCO)=CC(C2CC2)N(Cc2sc3ccccc3c2Cl)C=C1C(=O)OC (stereo not drawn) | 1.04 |
| CC(C)(C)OC(=O)CC[C@]1(C(=O)N2CCCCC2)N=C(c2ccc(OCCCO)cc2)O[C@H]1c1ccccc1N=[N+]=[N-] | 0.753 |
| COC(=O)C[C@H]1O[C@]2(C(=O)N(Cc3ccccc3)c3ccc(NC(C)=O)cc32)[C@@H](C)[C@@H]1[Si](C)(C)c1ccc(OC)cc1 | 0.483 |

Lab note: each compound below needs its composite z-score filled in.
1. C=CCOC(=O)[C@H]1[C@@H]2C(=O)O[C@@H](c3ccccc3)[C@@H](c3ccccc3)N2[C@@H](c2ccc(OCCOC(=O)[C@@H]3C[C@@H]4C(=O)NCC(=O)N4[C@@H]3c3ccc(O)cc3)cc2)[C@]12C(=O)Nc1ccccc12
2. Cc1ccc(S[C@]2(C(=O)NCc3ccccc3)CC(=O)N(Cc3ccccc3)[C@@H]2c2ccc(CO)cc2)cc1
3. COC(=O)[C@@]1(Cc2ccc(OC)cc2)[C@H]2c3cc(C(=O)N4CCCC4)n(Cc4ccccn4)c3C[C@H]2CN1C(=O)c1ccccc1
4. CN1C(=O)C2C(C1=O)C1C=C(CCCO)C2C(c2cccs2)N1C (stereo not drawn)

stdout:
1: 0.478; 2: -0.909; 3: 0.8; 4: -0.234
